Sourced from patent US20220168434A1

- TESTED SYSTEM: UniProtKB P02766
The reader will find reported pKd values listed item by item below.
# pKd is unitless: minus log10 of the molar concentration; print number only

Q: Give recorded pKd with UniProtKB P02766 for the following molecule: CC1=C(/C=C/C(C)=C/C=C/C(C)=C/CO)C(C)(C)CC=C1 [Vitamin A2, 3-dehydroretinol]
Ans: 7.63

Q: // same read-out, input: O=C(O)Cc1ccccc1Nc1c(Cl)cccc1Cl [Diclofenac sodium, diclofenac sodium, reference compound]
Ans: 7.35

Q: // same read-out, input: O=c1cc(-c2ccc(O)c(O)c2)oc2cc(O[C@@H]3O[C@H](CO)[C@@H](O)[C@H](O)[C@H]3O)cc(O)c12 [Luteoloside, luteoloside, reference compound]
Ans: 6.89

Q: // same read-out, input: CC1=C(/C=C/C(C)=C/C=C/C(C)=C/CO)C(C)(C)CCC1 [Vitamin A, retinol, reference compound]
Ans: 7.64
